Target: human MAL (human) (UniProt P58753)
Assay: P3 phage display panning on plate-immobilised MAL, after round 4, NGS
experimentalReadout: Population (%)

Example results:
[[record]]
binder = "KNLFNELVSKNIRTFM"
experimentalreadout = "Population"
experimentalvalue = 1.22

[[record]]
binder = "GFLYQAFAREGFKIFM"
experimentalreadout = "Population"
experimentalvalue = 0.66


[A] EWIREQLRPALKERLP
[B] RLLKWKEALHQFHSWV
Dear colleague, could you let me know whether A or B has the lower recorded Population? Thanks. The response must carry the label of the picked entry.
A
(A: 0.88%, B: 5.61%)
